Biological target: recombinant selenocysteine-containing rat TrxR1 (rat) (UniProt O89049)
Sequence (O89049 whole entry): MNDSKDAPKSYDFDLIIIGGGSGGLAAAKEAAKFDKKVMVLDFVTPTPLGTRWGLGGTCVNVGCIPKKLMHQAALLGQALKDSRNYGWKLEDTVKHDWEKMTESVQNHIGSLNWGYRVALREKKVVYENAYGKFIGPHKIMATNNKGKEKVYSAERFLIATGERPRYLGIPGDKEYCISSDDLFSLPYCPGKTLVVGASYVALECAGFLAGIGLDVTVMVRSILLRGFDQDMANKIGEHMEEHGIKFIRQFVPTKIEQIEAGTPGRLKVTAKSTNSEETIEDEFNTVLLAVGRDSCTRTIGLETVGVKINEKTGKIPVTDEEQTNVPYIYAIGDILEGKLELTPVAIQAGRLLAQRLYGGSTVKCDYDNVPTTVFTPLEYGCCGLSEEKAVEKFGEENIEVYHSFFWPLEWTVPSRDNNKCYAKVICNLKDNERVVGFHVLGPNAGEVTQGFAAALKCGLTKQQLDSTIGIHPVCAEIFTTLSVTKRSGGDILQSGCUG
parameter.measured: KM of TrxR1 for the Trx1 variant, insulin reduction-coupled assay
Give the value; after it, write the unit.

Output KM of TrxR1 for the Trx1 variant, insulin reduction-coupled assay of human Trx1 D58,60,61N (natural protein) MVKQIESKTAFQEALDAAGDKLVVVDFSATWCGPCKMIKPFFHSLSEKYSNVIFLEVNVNNCQDVASECEVKCMPTFQFFKKGQKVGEFSGANKEKLEATINELV 5.83 µmol/L

Could I get KM of TrxR1 for the Trx1 variant, insulin reduction-coupled assay for every one of these entries?
1. human Trx1 K94E (natural protein) MVKQIESKTAFQEALDAAGDKLVVVDFSATWCGPCKMIKPFFHSLSEKYSNVIFLEVDVDDCQDVASECEVKCMPTFQFFKKGQKVGEFSGANEEKLEATINELV
2. human Trx1 K39E (natural protein) MVKQIESKTAFQEALDAAGDKLVVVDFSATWCGPCKMIEPFFHSLSEKYSNVIFLEVDVDDCQDVASECEVKCMPTFQFFKKGQKVGEFSGANKEKLEATINELV
3. human Trx1 A17R,I53R (natural protein) MVKQIESKTAFQEALDRAGDKLVVVDFSATWCGPCKMIKPFFHSLSEKYSNVRFLEVDVDDCQDVASECEVKCMPTFQFFKKGQKVGEFSGANKEKLEATINELV

["3.78 µmol/L", "1.45 µmol/L", "2.73 µmol/L"]
